Test system: Escherichia coli expressing NDM-1 (CLB30005)
assay_notes: Antibiotic potentiation activity: synergistic concentration (MITC95) with imipenem, growth by OD600
Type: cell-based
conditions_used: 95% inhibition of bacterial growth, strain CLB30005
Outcome label depends on NDM1 EC30005 MITC95 relative to 10 µM: at/above gives Criterion met, below gives Criterion not met.

NDM1 EC30005 MITC95 >= 10 µM for CCC[C@H](C(=O)O)[C@H](Cc1ccc(-c2ccc(CN(C)C)cc2)cc1)c1nnn[nH]1 [Example 240] ? Criterion met

NDM1 EC30005 MITC95 >= 10 µM for CCCC[C@@H](C(=O)O)[C@@H](Cc1ccc(Br)cc1)c1nnn[nH]1 [Example 30] ? Criterion met

NDM1 EC30005 MITC95 >= 10 µM for CCC[C@H](C(=O)O)[C@H](Cc1ccc(-c2ccc3c(c2)CNC3)nc1)c1nnn[nH]1 [Example 95] ? Criterion not met

NDM1 EC30005 MITC95 >= 10 µM for CCC[C@H](C(=O)O)[C@H](Cc1ccc(-c2ccccc2CN2CCCCC2)cc1)c1nn[nH]n1 [Example 205] ? Criterion met

NDM1 EC30005 MITC95 >= 10 µM for CCC[C@@H](C(=O)O)[C@H](Cc1ccccc1)c1nnn[nH]1 [Example 5] ? Criterion met

NDM1 EC30005 MITC95 >= 10 µM for CCC(C)[C@H](C(=O)O)[C@H](Cc1ccccc1)c1nnn[nH]1 (stereo partly drawn) [Example 19] ? Criterion not met

NDM1 EC30005 MITC95 >= 10 µM for CCC[C@H](C(=O)O)[C@H](Cc1ccc(Cl)nc1)c1nnn[nH]1 [Example 82] ? Criterion not met

NDM1 EC30005 MITC95 >= 10 µM for CC(C)CCC[C@H](C(=O)O)[C@H](Cc1ccccc1)c1nnn[nH]1 [Example 1] ? Criterion met

NDM1 EC30005 MITC95 >= 10 µM for CCC[C@H](C(=O)O)[C@H](Cc1ccc(C2=CCCN(C)C2)cc1)c1nnn[nH]1 [Example 243] ? Criterion met

NDM1 EC30005 MITC95 >= 10 µM for CC(C)C[C@H](C(=O)O)[C@H](Cc1ccccc1)c1nnn[nH]1 [Example 7] ? Criterion met

NDM1 EC30005 MITC95 >= 10 µM for CCC[C@H](C(=O)O)[C@H](Cc1ccc(S(C)(=O)=O)cc1)c1nn[nH]n1 [Example 49] ? Criterion not met

NDM1 EC30005 MITC95 >= 10 µM for O=C(O)[C@@H](CCCCc1ccccc1)[C@H](Cc1ccc2c(c1)OCO2)c1nnn[nH]1 [Example 37] ? Criterion met

NDM1 EC30005 MITC95 >= 10 µM for CCC[C@H](C(=O)O)[C@H](Cc1ccc(-c2cnc(N3CCCC3)s2)cc1)c1nn[nH]n1 [Example 196] ? Criterion not met

NDM1 EC30005 MITC95 >= 10 µM for O=C(O)[C@@H](CC1CCCC1)[C@H](Cc1ccccc1)c1nnn[nH]1 [Example 10] ? Criterion met

NDM1 EC30005 MITC95 >= 10 µM for CC(C)CCC[C@@H](C(=O)O)[C@H](Cc1ccccc1)c1nnn[nH]1 [Example 2] ? Criterion met

NDM1 EC30005 MITC95 >= 10 µM for CCC[C@H](C(=O)O)[C@H](Cc1ccc(-c2ccc(N3CCNCC3)nc2)cc1)c1nn[nH]n1 [Example 199] ? Criterion not met

NDM1 EC30005 MITC95 >= 10 µM for CCCCC[C@H](C(=O)O)[C@H](Cc1ccc2c(c1)OCO2)c1nnn[nH]1 [Example 39] ? Criterion met

NDM1 EC30005 MITC95 >= 10 µM for C[C@@H](c1ccccc1)[C@H](c1nnn[nH]1)[C@H](CCF)C(=O)O [Example 28] ? Criterion met

NDM1 EC30005 MITC95 >= 10 µM for CCC[C@H](C(=O)O)[C@H](Cc1ccc(-c2ccc(S(N)(=O)=O)cc2)cc1)c1nn[nH]n1 [Example 197] ? Criterion not met

NDM1 EC30005 MITC95 >= 10 µM for CCC[C@H](C(=O)O)[C@H](Cc1ccc(-c2ccc(C(=O)NC)cc2)cc1)c1nn[nH]n1 [Example 202] ? Criterion not met

NDM1 EC30005 MITC95 >= 10 µM for CCC[C@H](C(=O)O)[C@H](Cc1ccc(-c2c(C)nn(C)c2C)nc1)c1nnn[nH]1 [Example 158] ? Criterion met

NDM1 EC30005 MITC95 >= 10 µM for O=C(O)[C@@H](CCCC1CCNCC1)[C@H](Cc1ccccc1)c1nnn[nH]1 [Example 36] ? Criterion met

NDM1 EC30005 MITC95 >= 10 µM for CCC[C@H](C(=O)O)[C@H](Cc1ccc(-c2ccc3nncn3c2)cc1)c1nnn[nH]1 [Example 239] ? Criterion met

NDM1 EC30005 MITC95 >= 10 µM for CCC[C@H](C(=O)O)[C@H](Cc1ccc(-c2cnn(C)c2)cc1)c1nnn[nH]1 [Example 233] ? Criterion met

NDM1 EC30005 MITC95 >= 10 µM for O=C(O)[C@@H](CCCCO)[C@H](Cc1ccccc1)c1nnn[nH]1 [Example 32] ? Criterion met

NDM1 EC30005 MITC95 >= 10 µM for CC[C@H](C(=O)O)[C@@H](c1nnn[nH]1)[C@@H](C)c1ccccc1 [Example 29] ? Criterion met

NDM1 EC30005 MITC95 >= 10 µM for N#CCCCC[C@H](C(=O)O)[C@H](Cc1ccccc1)c1nnn[nH]1 [Example 33] ? Criterion met

NDM1 EC30005 MITC95 >= 10 µM for CCC[C@H](C(=O)O)[C@H](Cc1ccc(-c2ccccc2CN2CCOCC2)cc1)c1nn[nH]n1 [Example 214] ? Criterion not met

NDM1 EC30005 MITC95 >= 10 µM for CCC[C@H](C(=O)O)[C@H](Cc1ccc(-c2ccc3c(c2)CNCC3)cc1)c1nnn[nH]1 [Example 236] ? Criterion met

NDM1 EC30005 MITC95 >= 10 µM for CC[C@H](C(=O)O)[C@H](Cc1ccccc1)c1nnn[nH]1 [Example 8] ? Criterion not met

NDM1 EC30005 MITC95 >= 10 µM for CCC[C@H](C(=O)O)[C@H](Cc1ccc(-c2cnc(N3CCCCC3)s2)cc1)c1nn[nH]n1 [Example 204] ? Criterion not met

NDM1 EC30005 MITC95 >= 10 µM for CCC[C@H](C(=O)O)[C@H](Cc1ccc(-c2ccc(C(C)(C)O)nc2)cc1)c1nn[nH]n1 [Example 213] ? Criterion not met

NDM1 EC30005 MITC95 >= 10 µM for CCC[C@H](C(=O)O)[C@H](Cc1ccc(-c2ccc(CN)cc2)cc1)c1nn[nH]n1 [Example 209] ? Criterion not met
